Cited source: patent US12060349B2

System: GM3 expression on the cell surface, B16 mouse melanoma cells
METHOD NOTES: cell based phenotypic assay, cell surface GM3 by antibody mediated immunofluorescence, B16 (GM3 B16 IC50)
CONDITION: Mus musculus, B16 mouse melanoma cells; 50% inhibition of GM3 expression on the cell surface; read-out: GM3 B16 IC50
pIC50: −log10 of the molar value.
Would you mind labelling by pIC50? At or over 7 is met, under is not met.

Reported pIC50 reaches at least 7 for CC1(NC(=O)C2(F)CCN(c3nccc(OCc4ccc(F)cc4)n3)CC2)CCN2CCC1CC2 (centres unmarked) ?
met

---

STUDY TARGET: glucosylceramide synthase (Homo sapiens)
Construct: Microsomes were isolated from A375 human melanoma cells; endogenous in cells
Sequence (Q16739 whole entry): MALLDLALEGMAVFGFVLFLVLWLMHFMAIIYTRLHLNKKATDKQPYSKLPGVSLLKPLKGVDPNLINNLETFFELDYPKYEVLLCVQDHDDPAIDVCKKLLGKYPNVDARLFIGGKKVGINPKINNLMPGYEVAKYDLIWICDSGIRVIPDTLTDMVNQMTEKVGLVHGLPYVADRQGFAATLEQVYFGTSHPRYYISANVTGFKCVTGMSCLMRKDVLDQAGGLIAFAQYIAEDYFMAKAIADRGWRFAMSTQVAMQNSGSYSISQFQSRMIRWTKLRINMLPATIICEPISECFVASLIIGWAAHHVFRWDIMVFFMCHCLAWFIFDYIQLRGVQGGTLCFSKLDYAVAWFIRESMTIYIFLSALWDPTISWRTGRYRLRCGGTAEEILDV
METHOD NOTES: microsomal assay measuring conversion of ceramide to glucosylceramide by HPLC (GCS IC50)
CONDITION: concentration causing 50% inhibition of glucosylceramide synthase activity
PARAMETER: pIC50
Note on units: pIC50 is unitless, being -log10 of a concentration expressed in mol/L.

COCCCOc1cnc(-c2cccc(C(C)(C)NC(=O)OC3CN4CCC3CC4)c2)cn1 (centres unmarked) [Example 315] has a reported pIC50 of 6.71

---

System: GM3 expression on the cell surface, B16 mouse melanoma cells
METHOD NOTES: cell based phenotypic assay, cell surface GM3 by antibody mediated immunofluorescence, B16 (GM3 B16 IC50)
CONDITION: Mus musculus, B16 mouse melanoma cells; 50% inhibition of GM3 expression on the cell surface; read-out: GM3 B16 IC50
Protocol: The cell based assay was performed in two different cell types, B16 and C32. Cell viability was also assessed in the second, cell-based assay. The “Compound Number” in the table corresponds to the compound disclosed in the Example of the same number. […] The results of the cell based assays (performed in two different cell systems, i.e. B16 mouse melanoma or C32 human melanoma cells) are expressed as “GM3 B16 IC50” or “GM3 C32 IC50” for the B16 assay and the C32 assay, respectively. […]
Some compounds, each annotated with its measured IC50.
Numeric answer only, unit nM assumed.

Use these answered entries as a reference point.
COCCOc1ccc(-c2nc(N3CCC(F)(C(=O)NC4(C)CCN5CCC4CC5)CC3)ncc2F)cc1 (stereo not shown)	71.4
CC1CN(C(=O)OC2CCN3CCC2CC3)CCN1c1nccc(-c2ccccc2)n1 (stereo not shown)	1930
COCCOCc1ccc(-c2ccnc(N3CCC(F)(C(=O)NC4(C)CN5CCC4CC5)CC3)n2)cc1 (stereo not shown)	119
CC1CN(C(=O)NC2(C)CCN3CCC2CC3)CCN1c1nccc(-c2ccccc2)n1 (stereo not shown)	209
CC1(NC(=O)C2CCN(c3ccnc(-c4ccc(F)cc4)c3)CC2)CCN2CCC1CC2 (stereo not shown)	1080

Known value: GM3 expression on the cell surface, B16 mouse melanoma cells IC50 of the compound CC1(NC(=O)C2(F)CCN(c3cncc(Oc4ccc(F)cc4)n3)CC2)CCN2CCC1CC2 (stereo not shown) equals 36

Known value: GM3 expression on the cell surface, B16 mouse melanoma cells IC50 of the compound `COCCCOc1ccc(-c2cccc(C(C)(C)NC(=O)N3CCN4CCC3CC4)c2)nn1` equals 4910

Known value: GM3 expression on the cell surface, B16 mouse melanoma cells IC50 of the compound C#CC1CN(C(=O)NC2(C)CCN3CCC2CC3)CCN1c1nccc(-c2ccc(COC)cc2)n1 (stereo not shown) equals 2640

Known value: GM3 expression on the cell surface, B16 mouse melanoma cells IC50 of the compound COCCOCc1ccc(-c2ccnc(N3CCC(C(=O)NC4(C)CCN5CCC4CC5)CC3)n2)cc1 (stereo not shown) equals 32.5

Known value: GM3 expression on the cell surface, B16 mouse melanoma cells IC50 of the compound `O=C(N1CCN(c2cccc(-c3ccccc3)c2)CC1)N1CCN2CCC1CC2` equals 6310

Known value: GM3 expression on the cell surface, B16 mouse melanoma cells IC50 of the compound CCC1(NC(=O)NC2(c3ccc(-c4ccc(COCc5cccnc5)cc4)cc3)CC2)CN2CCC1CC2 (stereo not shown) equals 168

Known value: GM3 expression on the cell surface, B16 mouse melanoma cells IC50 of the compound CCC1(NC(=O)NC2(c3ccc(-c4ccc(COCCOC)cc4)cc3)CC2)CN2CCC1CC2 (stereo not shown) equals 59.6

Known value: GM3 expression on the cell surface, B16 mouse melanoma cells IC50 of the compound COCc1ccc(-c2ccnc(N3CCC(C(=O)NC4(C)CCN5CCC4CC5)CC3)n2)cc1 (stereo not shown) equals 15.6

Known value: GM3 expression on the cell surface, B16 mouse melanoma cells IC50 of the compound CC1(NC(=O)C2(F)CCN(c3cncc(Oc4ccc(F)cc4)c3)CC2)CCN2CCC1CC2 (stereo not shown) equals 106

Known value: GM3 expression on the cell surface, B16 mouse melanoma cells IC50 of the compound CC1(NC(=O)C2(F)CCN(c3ncc(Oc4ccc(F)cc4)cn3)CC2)CN2CCC1CC2 (stereo not shown) equals 97.8

Known value: GM3 expression on the cell surface, B16 mouse melanoma cells IC50 of the compound CC1(NC(=O)C2CCN(c3nccc(-c4ccc(F)cc4)n3)CC2)CN2CCC1CC2 (stereo not shown) equals 49.9
